The reported numbers originate from patent US7071226B1.

I'd appreciate it if you could supply responders at 24 mg/kg/day values for the items below.
- Test system: multidrug resistant strain of Plasmodium yoelii Nigeriensis
- test.description: Antimalarial activity against multidrug resistant P. yoelii in Swiss mice (4-day treatment, observed till day 28)
- Format: in vivo
- stated.conditions: Plasmodium yoelii, po, 672 h, Swiss mice, 24 mg/kg/day, oral, day 0-3; read-out: Mice alive on day-28 (converted)
Answers are plain numbers, in %.

Study these solved cases before continuing.
C=C(c1ccccc1)C1COC2(CCC(Nc3ccccc3-c3ccccc3)CC2)OO1 (stereo not drawn); 40
C=C(c1ccc(Cl)cc1)C1COC2(CCC(Nc3cc(Cl)cc(Cl)c3)CC2)OO1 (stereo not drawn); 40

Please examine the following record next.
// field: responders at 24 mg/kg/day; key: C=C(c1ccc(Cl)cc1)C1COC2(CCC(Nc3ccccc3-c3ccccc3)CC2)OO1 (stereo not drawn) ; value = 40
